# target: hα2C receptor (Homo sapiens)
# Construct: expressed in transfected cells; host or cells: CHO cells
# Sequence (P18825 whole entry): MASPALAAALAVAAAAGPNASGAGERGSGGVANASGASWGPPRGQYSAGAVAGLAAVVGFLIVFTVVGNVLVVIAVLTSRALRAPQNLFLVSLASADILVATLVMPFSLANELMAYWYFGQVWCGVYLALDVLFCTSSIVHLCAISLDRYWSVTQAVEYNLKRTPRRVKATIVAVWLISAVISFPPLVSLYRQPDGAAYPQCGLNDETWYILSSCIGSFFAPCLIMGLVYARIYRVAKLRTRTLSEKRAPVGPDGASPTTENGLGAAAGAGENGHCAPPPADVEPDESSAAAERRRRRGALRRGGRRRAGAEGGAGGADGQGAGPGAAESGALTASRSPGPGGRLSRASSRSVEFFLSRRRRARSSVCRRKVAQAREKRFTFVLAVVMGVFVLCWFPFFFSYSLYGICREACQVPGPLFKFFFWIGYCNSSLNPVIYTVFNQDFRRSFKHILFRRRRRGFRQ
# assay-overview: Radioligand binding experiment for α2C-adrenergic receptor ([3H]-raulwolscine)
# run-conditions: CHO cell membranes with human α2C receptor, [3H]raulwolscine 1 nM; read-out: pIC50 α2C (converted)
For each of the compounds below, state its IC50.
Give bare numbers, in nM.

These recorded examples may help you get a feel for the data.
// IC50 value for CC(=Cc1ccccc1)CN1CCN(CC2ON=C3c4ccc(N(S(C)(=O)=O)S(C)(=O)=O)cc4OCC32)CC1 (stereo not shown) : 0.501

Data point: C/C(=C\c1ccccc1)CN1CCN(CC2ON=C3c4ccc(NC(=O)[C@@H]5CCCN5)cc4OCC32)CC1 (stereo partly shown) ; IC50 = 0.631

The measured IC50 associated with COc1cc2c(cc1NC(=O)Nc1ccccc1)OCC1C2=NOC1CN1CCN(CC(C)=Cc2ccc(F)cc2)CC1 (stereo not shown) reads 158

Per the records, this compound ( CC(=Cc1ccc(F)cc1)CN1CCN(CC2ON=C3c4ccc(NC(=O)C5CC5)cc4OCC32)CC1 (stereo not shown) ) has IC50 equal to 31.6

Kindly note the recorded IC50 for C/C(=C\c1cccc(F)c1)CN1CCN(CC2ON=C3c4cc5c(cc4OCC32)NCCO5)CC1 (stereo not shown) , which is 1

The recorded IC50 for C/C(=C\c1ccccc1)CN1CCN(CC2ON=C3c4ccc(NC(=O)[C@H]5CCCN5)cc4OCC32)CC1 (stereo partly shown) is 0.501

Shifting focus to the compound that follows.
So for CCCC(C)C(=O)Nc1cc2c(cc1OC)C1=NOC(CN3CCN(CC(C)=Cc4ccc(F)cc4)CC3)C1CO2 (stereo not shown) , the logged IC50 turned out to be 39.8

---

# target: h5-HT transporter (Homo sapiens, UniProt P31645)
# Sequence (P31645 whole entry): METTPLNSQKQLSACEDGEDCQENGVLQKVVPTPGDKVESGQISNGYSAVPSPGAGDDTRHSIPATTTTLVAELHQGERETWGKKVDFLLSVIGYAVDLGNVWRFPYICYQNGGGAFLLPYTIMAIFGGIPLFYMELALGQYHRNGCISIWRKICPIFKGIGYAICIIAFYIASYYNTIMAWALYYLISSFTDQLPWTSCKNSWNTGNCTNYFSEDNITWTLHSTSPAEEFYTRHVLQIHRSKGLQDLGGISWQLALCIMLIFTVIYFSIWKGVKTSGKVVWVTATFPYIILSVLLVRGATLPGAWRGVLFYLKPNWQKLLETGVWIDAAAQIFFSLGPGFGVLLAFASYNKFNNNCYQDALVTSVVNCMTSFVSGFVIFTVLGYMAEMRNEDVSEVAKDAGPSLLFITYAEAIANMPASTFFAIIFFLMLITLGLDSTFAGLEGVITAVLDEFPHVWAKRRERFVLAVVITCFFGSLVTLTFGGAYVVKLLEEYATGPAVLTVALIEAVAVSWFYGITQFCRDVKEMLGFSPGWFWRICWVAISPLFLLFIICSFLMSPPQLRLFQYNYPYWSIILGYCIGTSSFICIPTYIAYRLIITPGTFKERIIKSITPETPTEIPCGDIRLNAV
Rule: IC50 below 80 nM gives fulfilled. Equal to or above 80 nM gives not fulfilled.

Use these answered entries as a reference point.
QUERY: Please state whether IC50 is below 80 nM for CC(=Cc1ccc(F)cc1)CN1CCN(CC2ON=C3c4ccc(N5CCCC5)cc4OCC32)CC1 (centres unmarked)
RESULT: not fulfilled

QUERY: Is IC50 strictly under 80 nM for the entry COc1cc2c(cc1N)OCC1C2=NOC1CN1CCN(C/C(C)=C/c2ccccc2)CC1 (centres unmarked) ?
RESULT: fulfilled

QUERY: Is IC50 of CC(=Cc1ccc(F)cc1)CN1CCN(CC2ON=C3c4ccc(N5CCc6ccccc6C5)cc4OCC32)CC1 (centres unmarked) strictly below 80 nM?
RESULT: fulfilled

QUERY: Please state whether IC50 is below 80 nM for CC(=Cc1ccccc1)CN1CCN(CC2ON=C3c4ccc(N(C)c5ccccc5)cc4OCC32)CC1 (centres unmarked)
RESULT: not fulfilled

QUERY: Does the reported IC50 of CC(=O)N1CCOc2cc3c(cc21)OCC1C3=NOC1CN1CCN(C/C(C)=C/c2ccccc2)CC1 (centres unmarked) stay below 80 nM?
RESULT: fulfilled

QUERY: Please determine if CC(=Cc1ccccc1)CN1CCN(CC2ON=C3c4ccc(Nc5ccc(C)c(C)c5)cc4OCC32)CC1 (centres unmarked) is below 80 nM in terms of IC50.
RESULT: not fulfilled

// switching to the query compound
QUERY: Please state whether IC50 is below 80 nM for COc1cc2c(cc1N)OCC1C2=NOC1CN1CCN(CC(C)=Cc2cccc(F)c2)CC1 (centres unmarked)
RESULT: fulfilled
